- assayNotes: Murine tumor cell selectivity as zone unit differential between ([…]) murine cell line and (CFU) normal bone marrow in disk diffusion soft agar colony formation assay at 75 ug/disk.
- Assay type: functional
endpoint: Selectivity

[
  {
    "smilesData": "CC[C@H]1C=CCC[C@@]2(C[C@@H]3CC[C@@H]4[C@H](C(=O)OCCCCCC(=O)[O-])[C@]5(CCC[C@@H](C)O5)NC(=[N+]34)N2)O1.Cl",
    "assayValue": 200
  },
  {
    "smilesData": "CC[C@H]1C=CCC[C@@]2(C[C@@H]3CC[C@@H]4[C@H](C(=O)OCCCCCCCC(=O)N(CCCN)C[C@@H](O)CCN)[C@]5(CCC[C@@H](C)O5)NC(=[N+]34)N2)O1.Cl.Cl.[Cl-]",
    "assayValue": 300
  },
  {
    "smilesData": "CC[C@H]1C=CCC[C@@]2(C[C@@H]3CC[C@H]4[C@H](C(=O)OCCCCCCCCCCCCCCCC(=O)N(CCCN)C[C@@H](O)CCN)[C@@]5(CCC[C@@H](C)O5)NC(=[N+]34)N2)O1.Cl.Cl.[Cl-]",
    "assayValue": 50
  },
  {
    "smilesData": "CC[C@H]1C=CCC[C@@]2(C[C@@H]3CC[C@@H]4[C@H](C(=O)OCCCCCCCCCCCCCCC(=O)[O-])[C@]5(CCC[C@@H](C)O5)NC(=[N+]34)N2)O1.Cl",
    "assayValue": -100
  },
  {
    "smilesData": "CC[C@H]1C=CCC[C@@]2(C[C@@H]3CC[C@@H]4[C@H](C(=O)OCCCCCCCCCC(=O)N(CCCN)C[C@@H](O)CCN)[C@]5(CCC[C@@H](C)O5)NC(=[N+]34)N2)O1.Cl.Cl.[Cl-]",
    "assayValue": 300
  }
]
